test system: Caenorhabditis elegans N2; test: mean nematode size ln(EXT) after 48 h, plate-adjusted (DMSO control set to 6) (ln(EXT), control-adjusted); higher = larger nematodes / less growth inhibition; conditions: 5 µM; exposure time 48 h
Structures can show the parent of a compound that is named as a salt.
Provide the reported mean nematode size ln(EXT) (ln) of each item.
Lab note: jot down the number only; don't add units.

Ask: Reported mean nematode size ln(EXT) (ln), molecule N=C(N)c1ccc(OCCCCCOc2ccc(C(=N)N)cc2)cc1 [Pentamidine isethionate salt] : ____
Reply: 6

Ask: Entry COC(=O)c1ccccc1C(=O)O [Methyl hydrogen phthalate] : reported mean nematode size ln(EXT) (ln) = ?
Reply: 6.1

Ask: So what's the measured mean nematode size ln(EXT) (ln) for this one? CN1CSC(=S)N(C)C1 [Dazomet]
Reply: 5.46

Ask: Consider the molecule NC(=O)N(O)[C@@H]1COc2cc(OCc3ccccc3)ccc21 and give its measured mean nematode size ln(EXT) (ln).
Reply: 5.82

Ask: mean nematode size ln(EXT) (ln) for CCCCOC(=O)[C@H](C)Oc1ccc(Oc2ccc(C#N)cc2F)cc1 [Cyhalofop-butyl] ?
Reply: 6.12

Ask: Dear colleague, I am looking for the recorded mean nematode size ln(EXT) (ln) of the following molecule: C=CC1(C)OC(=O)N(c2cc(Cl)cc(Cl)c2)C1=O (stereo not given) [Vinclozolin]
Reply: 3.56

Ask: Need mean nematode size ln(EXT) (ln) of CCC[CH2][Sn]([Cl])([CH2]CCC)[CH2]CCC [Tributyltin chloride] , thanks.
Reply: 3.7

Ask: Look up mean nematode size ln(EXT) (ln) for this molecule: CCOC(N)=O [Urethane (ethyl carbamate)]
Reply: 5.97

Ask: Fill in the blank: the reported mean nematode size ln(EXT) (ln) of Cn1c(=O)c2nc[nH]c2n(C)c1=O [Theophylline] is ____.
Reply: 5.98

Ask: Entry under review: COC(=O)Nc1nc2ccccc2[nH]1 [methyl 1H-benzimidazol-2-ylcarbamate] . Reported mean nematode size ln(EXT) (ln)?
Reply: 5.32

* * *

test system: Caenorhabditis elegans N2; assay: mean nematode size ln(EXT) after 48 h, plate-adjusted (DMSO control set to 6) (ln(EXT), control-adjusted); higher = larger nematodes / less growth inhibition; details: 10 µM; exposure time 48 h
Structures can show the parent of a compound that is named as a salt.
property_measured: mean nematode size ln(EXT) (ln)

Ask: May I ask what mean nematode size ln(EXT) (ln) has been recorded for CC(C)(C)c1cc(O)c(C(C)(C)C)cc1O ?
Reply: 5.79

Ask: What does the data say about its mean nematode size ln(EXT) (ln)? Entry: O=S(=O)(O)C(F)(F)C(F)(F)C(F)(F)C(F)(F)C(F)(F)C(F)(F)C(F)(F)C(F)(F)F [Heptadecafluorooctanesulfonic acid potassium salt]
Reply: 4.63

Ask: Entry Cc1c(F)c(F)c(COC(=O)[C@@H]2[C@H](/C=C(\Cl)C(F)(F)F)C2(C)C)c(F)c1F (racemic) : reported mean nematode size ln(EXT) (ln) = ?
Reply: 5.79

Ask: Which value of mean nematode size ln(EXT) (ln) has been reported for On1ccccc1=S [Sodium (2-pyridylthio)-N-oxide] in the records?
Reply: 5.87

Ask: mean nematode size ln(EXT) (ln) for O=C(O)C(O)C(O)C(=O)O (centres undefined) ?
Reply: 5.79

Ask: Field request: mean nematode size ln(EXT) (ln) | item: CN(C)C(=O)Nc1cccc(C(F)(F)F)c1
Reply: 6.02

Ask: What does the record list as mean nematode size ln(EXT) (ln) for CCC(C)(c1ccc(O)cc1)c1ccc(O)cc1 ?
Reply: 5.74

Ask: Which mean nematode size ln(EXT) (ln) value is on record for COC(=O)NC(=S)Nc1ccccc1NC(=S)NC(=O)OC [Thiophanate-methyl] ?
Reply: 5.87

Ask: Please give the measured mean nematode size ln(EXT) (ln) for this compound: CCOC(=O)O[C@H](C)OC(=O)c1ccc2c(c1)cc(C(=O)NC1CCN(C(C)C)CC1)n2Cc1cc(-c2ccc(Cl)s2)on1
Reply: 5.76

Ask: Entry CCCCOC(=O)c1ccccc1 [Butyl benzoate] : reported mean nematode size ln(EXT) (ln) = ?
Reply: 5.83

Ask: Which measured mean nematode size ln(EXT) (ln) value corresponds to CN1COCN(Cc2cnc(Cl)s2)/C1=N\[N+](=O)[O-] ?
Reply: 5.88

Ask: Which measured mean nematode size ln(EXT) (ln) value corresponds to c1ccc2c(c1)ccc1ccccc12 ?
Reply: 3.51

Ask: Fill blank: measured mean nematode size ln(EXT) (ln) of the compound CON(C)C(=O)Nc1ccc(Cl)c(Cl)c1 is ____.
Reply: 5.98

Ask: What measured mean nematode size ln(EXT) (ln) goes with OB(O)O ?
Reply: 6.13

Ask: Given the entry COCC(C)N(C(=O)CCl)c1c(C)csc1C (centres undefined) , report its measured mean nematode size ln(EXT) (ln).
Reply: 6.03

Ask: May I ask what mean nematode size ln(EXT) (ln) has been recorded for Nc1ccc2ccccc2c1 ?
Reply: 5.72

Ask: // mean nematode size ln(EXT) (ln) lookup, key: CN[C@H]1CC[C@@H](c2ccc(Cl)c(Cl)c2)c2ccc(S(N)(=O)=O)cc21
Reply: 5.84

Ask: Which mean nematode size ln(EXT) (ln) value is on record for CCCCCCCCN(C)CCCCCCCC ?
Reply: 5.75

Ask: What mean nematode size ln(EXT) (ln) value was documented for this compound, Cn1c(=O)c2c(ncn2C)n(C)c1=O ?
Reply: 5.91

Ask: I'd like to know its mean nematode size ln(EXT) (ln). The compound in question is CC(C)CCCCCCOC(=O)CCCCC(=O)OCCCCCCC(C)C [Diisononyl adipate]
Reply: 5.92

Ask: For OC12N=C(c3ccccc3)SC1Cc1cc(Cl)ccc12 (centres undefined) , what is its reported mean nematode size ln(EXT) (ln)?
Reply: 5.45

Ask: // query mean nematode size ln(EXT) (ln) value for entry CCCCCCCCCCC
Reply: 5.83

Ask: Data request, read-out mean nematode size ln(EXT) (ln), for CCOC(=O)CCC(=O)OCC
Reply: 5.89

Ask: Please give the measured mean nematode size ln(EXT) (ln) for this compound: Cc1ccccc1O
Reply: 5.82

Ask: Using the record for CCCCCCC(=O)O , report its mean nematode size ln(EXT) (ln).
Reply: 6.04

Ask: Item under review: CCC(C)=NO . Reported mean nematode size ln(EXT) (ln)?
Reply: 5.8

Ask: I have this compound here, [As]#[In] [Indium arsenide] , and I need its recorded mean nematode size ln(EXT) (ln).
Reply: 5.75

Ask: If you can, please state the reported mean nematode size ln(EXT) (ln) value of CCCSP(=O)(OCC)SCCC .
Reply: 5.55

Ask: Dear colleague, I am looking for the recorded mean nematode size ln(EXT) (ln) of the following compound: CC(C)CC(C)(O)C#CC(C)(O)CC(C)C (racemic)
Reply: 5.78

Ask: # query: mean nematode size ln(EXT) (ln) of entry COc1cnc(OC)n2nc(NS(=O)(=O)c3c(OCC(F)F)cccc3C(F)(F)F)nc12
Reply: 6.03

Ask: May I ask what mean nematode size ln(EXT) (ln) has been recorded for CC[C@H](C)C1O[C@]2(C=C[C@@H]1C)C[C@@H]1C[C@@H](C/C=C(\C)[C@@H](O[C@H]3C[C@H](OC)[C@@H](O[C@H]4C[C@H](OC)[C@H](NC)[C@H](C)O4)[C@H](C)O3)[C@@H](C)/C=C/C=C3\CO[C@@H]4[C@H](O)C(C)=C[C@@H](C(=O)O1)[C@]34O)O2 (some centres undefined) [Emamectin benzoate] ?
Reply: 3.6

Ask: Look at this compound and give its reported mean nematode size ln(EXT) (ln). O=C(N[C@H](c1ccccc1)[C@@H]1CN2CCC1CC2)c1c(Cl)ccc(C(F)(F)F)c1Cl
Reply: 5.64

Ask: For the compound N=C(N)c1ccc(OCCCCCOc2ccc(C(=N)N)cc2)cc1 [Pentamidine isethionate salt] , what mean nematode size ln(EXT) (ln) is on record?
Reply: 5.89

Ask: // returns reported mean nematode size ln(EXT) (ln) for input CNC(C)=O [N-Methylacetamide]
Reply: 6.02

Ask: Query (compound): CCOC(=O)C(C)Oc1ccc(Oc2nc3ccc(Cl)cc3o2)cc1 (centres undefined) ; field requested: mean nematode size ln(EXT) (ln)
Reply: 5.97

Ask: Tell me the measured mean nematode size ln(EXT) (ln) of O=C(O)[C@@H]1[C@H](C(=O)O)[C@H]2CC[C@@H]1O2 [Endothal] , please.
Reply: 5.82

Ask: I'd like to know its mean nematode size ln(EXT) (ln). The compound in question is CCC(=O)Nc1ccc(Cl)c(Cl)c1
Reply: 5.93

Ask: For the compound CCCCCCC(C)OC(=O)COc1nc(F)c(Cl)c(N)c1Cl (centres undefined) , what mean nematode size ln(EXT) (ln) is on record?
Reply: 5.94

Ask: Form field: reported mean nematode size ln(EXT) (ln) of CC1=C(C(=O)Nc2ccccc2)SCCO1
Reply: 5.85
